Would you mind telling me the reported pKd of each entry?
Target desc: T1, human VEGF-A residues 27-191 of Accession #AAV38412 (human, UniProt P15692 27-191)
T1 construct: range 27-191
T1 sequence (P15692 other isoform, or with tags, fused parts or gaps limits assumed): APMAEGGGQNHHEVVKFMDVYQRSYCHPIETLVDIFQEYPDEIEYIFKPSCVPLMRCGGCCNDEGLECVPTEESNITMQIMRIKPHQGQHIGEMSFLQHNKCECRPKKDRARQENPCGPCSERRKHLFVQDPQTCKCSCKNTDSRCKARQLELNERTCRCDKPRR
Assay procedure: BIAcore SPR
Please treat pKd as minus the base-10 logarithm of the molar concentration.

Ask: Name the reported pKd value associated with the binder T28 R (anti-VEGF IgG) (antibody, V domains shown, copies: 2 + 2) VH: EVQLVESGGGLVQPGGSLRLSCAASGYRFTNYGMNWVRQAPGKGLEWVGWINTYTGEPTYAADFKRRFTFSLDTSKSTAYLQMNSLRAEDTAVYYCAKYPHYYGSSHWYFDVWGQGTLVTVSS VL: DIQMTQSPSSLSASVGDRVTITCSASQDISNYLNWYQQKPGKAPKVLIYFTSSLHSGVPSRFSGSGSGTDFTLTISSLQPEDFATYYCQQYSTVPWTFGQGTKVEIK
Result: 9.17

Ask: Please look up its pKd: N31 W (anti-VEGF IgG) (antibody, V domains shown, copies: 2 + 2) VH: EVQLVESGGGLVQPGGSLRLSCAASGYTFTWYGMNWVRQAPGKGLEWVGWINTYTGEPTYAADFKRRFTFSLDTSKSTAYLQMNSLRAEDTAVYYCAKYPHYYGSSHWYFDVWGQGTLVTVSS VL: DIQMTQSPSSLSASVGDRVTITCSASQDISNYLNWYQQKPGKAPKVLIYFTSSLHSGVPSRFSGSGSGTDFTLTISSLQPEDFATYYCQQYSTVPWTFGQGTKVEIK
Result: 9.79

Ask: Entry under review: S100a G (anti-VEGF IgG) (antibody, V domains shown, copies: 2 + 2) VH: EVQLVESGGGLVQPGGSLRLSCAASGYTFTNYGMNWVRQAPGKGLEWVGWINTYTGEPTYAADFKRRFTFSLDTSKSTAYLQMNSLRAEDTAVYYCAKYPHYYGGSHWYFDVWGQGTLVTVSS VL: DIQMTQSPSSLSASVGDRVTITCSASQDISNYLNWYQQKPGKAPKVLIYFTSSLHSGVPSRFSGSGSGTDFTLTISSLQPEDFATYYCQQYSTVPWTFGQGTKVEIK . Reported pKd?
Result: 9.22

Ask: Which pKd is reported for this binder? 91 (antibody, human IgG1, V domains shown) VH: EVQLVESGGGLVQPGGSLRLSCAASGYTFTFYGMNWVRQAPGKGLEWVGWINTYTGEPTYAADFKRRFTFSLDTSKSTAYLQMNSLRAEDTAVYYCAKYPHYYGSSHWYFDVWGQGTLVTVSS VL: DIQMTQSPSSLSASVGDRVTITCSASQDISNYLNWYQQKPGKAPKVLIYFTSSLHSGVPSRFSGSGSGTDFTLTISSLQPEDFATYYCQQYSTVPWTFGQGTKVEIKR
Result: 10.04
